# Tested System: Nitric oxide synthase 1 (Homo sapiens, UniProt P29475)
# Sequence (P29475 whole entry): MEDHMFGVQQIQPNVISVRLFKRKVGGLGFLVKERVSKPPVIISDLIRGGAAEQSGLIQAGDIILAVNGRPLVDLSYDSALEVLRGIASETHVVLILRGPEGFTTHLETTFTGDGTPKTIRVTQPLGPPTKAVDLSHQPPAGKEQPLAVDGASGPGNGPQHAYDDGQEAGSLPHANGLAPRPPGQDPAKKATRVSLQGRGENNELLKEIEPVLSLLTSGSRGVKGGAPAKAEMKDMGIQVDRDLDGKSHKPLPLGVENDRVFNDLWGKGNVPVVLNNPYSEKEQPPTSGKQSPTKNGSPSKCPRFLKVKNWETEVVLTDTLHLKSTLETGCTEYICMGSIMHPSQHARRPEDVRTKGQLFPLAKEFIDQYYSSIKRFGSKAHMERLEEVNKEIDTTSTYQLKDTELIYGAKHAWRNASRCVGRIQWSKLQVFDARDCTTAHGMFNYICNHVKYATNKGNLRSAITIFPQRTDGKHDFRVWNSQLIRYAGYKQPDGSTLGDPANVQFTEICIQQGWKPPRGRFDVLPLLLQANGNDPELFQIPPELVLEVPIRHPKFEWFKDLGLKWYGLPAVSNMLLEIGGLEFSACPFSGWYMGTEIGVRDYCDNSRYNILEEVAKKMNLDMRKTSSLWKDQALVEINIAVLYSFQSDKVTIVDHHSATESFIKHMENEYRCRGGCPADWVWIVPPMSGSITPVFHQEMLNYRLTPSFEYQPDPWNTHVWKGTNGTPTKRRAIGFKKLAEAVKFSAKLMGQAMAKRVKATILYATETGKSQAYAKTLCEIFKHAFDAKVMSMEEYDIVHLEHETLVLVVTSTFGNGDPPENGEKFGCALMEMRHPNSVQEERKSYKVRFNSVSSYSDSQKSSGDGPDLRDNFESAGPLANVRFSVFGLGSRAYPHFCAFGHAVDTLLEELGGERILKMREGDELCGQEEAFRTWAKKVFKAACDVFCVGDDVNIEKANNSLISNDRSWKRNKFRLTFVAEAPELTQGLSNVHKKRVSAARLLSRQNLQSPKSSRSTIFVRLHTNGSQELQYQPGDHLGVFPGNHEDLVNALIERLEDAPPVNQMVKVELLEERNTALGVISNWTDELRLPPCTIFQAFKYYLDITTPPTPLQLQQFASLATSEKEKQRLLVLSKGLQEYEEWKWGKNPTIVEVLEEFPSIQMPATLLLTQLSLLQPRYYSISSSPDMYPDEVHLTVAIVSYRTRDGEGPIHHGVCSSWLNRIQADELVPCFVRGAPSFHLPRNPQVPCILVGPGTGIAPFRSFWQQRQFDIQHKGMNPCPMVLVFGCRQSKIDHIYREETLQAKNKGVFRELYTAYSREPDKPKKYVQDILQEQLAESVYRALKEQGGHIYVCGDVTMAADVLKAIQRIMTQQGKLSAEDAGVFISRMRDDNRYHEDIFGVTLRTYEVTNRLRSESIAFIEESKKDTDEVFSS
# Experiment Notes: Inhibition of human recombinant nNOS expressed in Escherichia coli assessed as reduction in L-[3H]-citrulline level using L-[3H]-arginine as substrate at 1 mM incubated for 30 mins by liquid scintillation method relative to control
Assay Metric: inhibition

> print(dat)
                                    molecule  reported.result
 1  COc1ccc(N)c(C(=O)CCNC(=N)c2ccc(Cl)cc2)c1            86.4%
 2      COc1ccc(N)c(C(=O)CCNC(=N)c2ccccc2)c1            85.9%
 3  N=C(NCCC(=O)c1ccccc1N)c1ccc(C(F)(F)F)cc1              56%
 4  N=C(NCCC(O)c1ccccc1N)c1ccc(C(F)(F)F)cc1 (configuration not stated)            36.5%
 5               CC(=N)NCCC(=O)c1cc(Cl)ccc1N            19.9%
 6  COc1ccc(N)c(C(O)CCNC(C)=N)c1 (configuration not stated)              19%
 7  CC(=N)NCCC(O)c1ccccc1N (configuration not stated)            28.3%
 8  COc1ccc(N)c(C(O)CCNC(=N)c2ccccc2)c1 (configuration not stated)            7.18%
 9        N=C(NCCC(=O)c1ccccc1N)c1ccc(Cl)cc1            37.4%
10  COc1ccc(N)c(C(O)CCNC(=N)c2ccc(C(F)(F)F)cc2)c1 (configuration not stated)            12.5%
11  COc1ccc(N)c(C(O)CCNC(=N)c2ccc(Cl)cc2)c1 (configuration not stated)            58.5%
12             COc1ccc(N)c(C(=O)CCNC(C)=N)c1            89.2%
